target: T1, UbcH5B S22R C85K covalently linked to Ub (UbcH5B_(S22R)–Ub) (human, UniProt P62837 1-147; P0CG47 1-76, S22R | C85K, Lys85 (C85K) in a stable amide linkage to Ub | covalently linked to Lys85 of UbcH5B S22R C85K (amide linkage)); assay: SPR; GST-cIAP1R coupled to a CM-5 chip, Biacore T200, 25 °C; analytes diluted in 25 mM Tris-HCl pH 7.6, 150 mM NaCl, 0.1 mg/ml BSA, 1 mM DTT, 0.005% Tween 20; GST alone subtracted; steady-state affinity analysis; settings: both partners purified
T1 construct: UbcH5B, human Ub-conjugating enzyme (E2); ubiquitin (Ub), human, donor Ub; source: E. coli BL21 (DE3) Gold
pKd: −log10 of the molar value.
MEASURED_ENDPOINT: pKd

- BINDER: "GST-cIAP1R (cIAP1 RING domain, residues 556-C, with GST) (domain or fragment, human, UniProt Q13490 556-618, looked up, pGEX4T1 with a TEV site after GST; the tag is not cleaved in this form; source: E. coli BL21 (DE3) Gold; not shown: GST, N-terminal, kept) LSLEEQLRRLQEERTCKVCMDKEVSVVFIPCGHLVVCQECAPSLRKCPICRGIIKGTVRTFLS"
  MEASURED_ENDPOINT: "pKd"
  MEASURED_VALUE: 6.05
